# System: E. coli ATCC2592
# Experiment notes: radial diffusion assay against E. coli (G- strain)
# Type: cell-based, Escherichia coli
# Design: unit not given here
# Particulars: radial diffusion; E. coli ATCC2592 approx 2 x 10^6 cfu/mL in 1 % agarose underlay gel; 3.5 mm holes, 100 μL AMP sample; 37 °C 12 h; diameter of clear zone; performed in triplicate; '-' = no zone

Seq text	G- strain halo diameter
GRKAGGPKNKSVSKSIKAGLQFPVGRITRFLKKGRYAQRLGGERREIRLLTKPE [Bn1, recombinant B. napus AMP candidate, 54 aa]	1.256
EQCGRQAGGALCPNGLCCSNLAGAAIPNRIANRPVARASVAA [Bn2, recombinant B. napus AMP candidate, 42 aa]	1.189
VVCDKSYTCPDKSTCCCVSESKGKCDSWGCCPFESATCCENGSSCCP [Bn10, recombinant B. napus AMP candidate, 47 aa]	1.722

====

# Tested on: E. coli ATCC2592
# Experiment notes: radial diffusion assay against E. coli (G- strain)
# Assay type: cell-based, Escherichia coli
# Particulars: radial diffusion; E. coli ATCC2592 approx 2 x 10^6 cfu/mL in 1 % agarose underlay gel; 3.5 mm holes, 100 μL AMP sample; 37 °C 12 h; diameter of clear zone; performed in triplicate; '-' = no zone
# Procedure: Purified His-EDDIE-AMPs inclusion bodies were refolded by rapid 1:50 dilution in an optimized refolding buffer (500 mM NaCl, 20 mM Tris, 2 mM EDTA, 5 % glycerol, 10 mM DTT, 0.01 % Tween-20, pH 7.5) and incubated at an appropriate temperature without stirring. During refolding, EDDIE restored its correct conformation and self-cleaved at the specific sites, releasing AMPs from the fusion bodies. […] The antimicrobial activities of recombinant AMPs were detected using a radial diffusion assay. […]
Parameter threshold = 2. Response is Criterion met when G- strain halo diameter meets or exceeds it, else Criterion not met.

Seq text	Group
EQCGRRRVERCSRMAVLCEFGWCGDTEPYCKQTGCQSQCGG [Bn3, recombinant B. napus AMP candidate, 41 aa]	Criterion not met
AITCGTVTSSLAPCATLSSSGGEMPPPLCGGCAGVKKLNGMAQTTADRQ [Bn7, recombinant B. napus AMP candidate, 49 aa]	Criterion not met
RMCETSSQLFNGPCLSTNCANICQNEGFPDGDCKGFRLRCICNRPC [Bn13, recombinant B. napus AMP candidate, 46 aa]	Criterion met
QNCGCAPNLCCSQFGYCGSTDAYRDWLP [Bn25, recombinant B. napus AMP candidate, 28 aa]	Criterion not met
NQCGQFVSGALINTCCCLFKCG [Bn23, recombinant B. napus AMP candidate, 22 aa]	Criterion not met
CAPNHCCSQFGYCGTNDAHCGAGCKS [Bn29, recombinant B. napus AMP candidate]	Criterion not met

====

# G- strain halo diameter per entry
# Tested on: E. coli ATCC2592
# Experiment notes: radial diffusion assay against E. coli (G- strain)
# Format: cell-based, Escherichia coli
# Particulars: radial diffusion; E. coli ATCC2592 approx 2 x 10^6 cfu/mL in 1 % agarose underlay gel; 3.5 mm holes, 100 μL AMP sample; 37 °C 12 h; diameter of clear zone; performed in triplicate; '-' = no zone

Seq text	System	G- strain halo diameter
ALTCGTVNSNVAPCIGYITQGGPLPGACCTG [Bn27, recombinant B. napus AMP candidate, 31 aa]	E. coli ATCC2592	1.756
IQCGKFFSCSEINTCCCLFKCGKYYFGWGCCPLEASTCCDDNTSCCP [Bn22, recombinant B. napus AMP candidate]	E. coli ATCC2592	0.433
GKPSGSEKDKDKKKQPITRSARAGLQFPVGRVHRLLK [Bn5, recombinant B. napus AMP candidate, 37 aa]	E. coli ATCC2592	1.711
AVTCNNVVGDLYPCLSYVMRGGNAPSTNCCNGVRTLNSQAQTTADRQSVCRCIKNA [Bn21, recombinant B. napus AMP candidate, 56 aa]	E. coli ATCC2592	1.711
ALTCGTVNSNVARALAILPRGDRCPERAAPAKAN [Bn26, recombinant B. napus AMP candidate, 34 aa]	E. coli ATCC2592	1.533
KECEERSRQSRSFSVICKYDYACQNHCINLEKADGGQCNSRSPTAKCICYFQC [Bn8, recombinant B. napus AMP candidate, 53 aa]	E. coli ATCC2592	1.656
LQFPVGRISRYLKKGRYAIRYGAGAP [Bn30, recombinant B. napus AMP candidate, 26 aa]	E. coli ATCC2592	1.289
PPTQNPSMAPPTQNPYGQPMAPPTQNPYGQPMAPP [Bn19, recombinant B. napus AMP, 35 aa; new member of the proline-rich antimicrobial peptide family, similar to SP-B]	E. coli ATCC2592	3.011
CASGVGCSQYGYCGNGPDYCG [Bn28, recombinant B. napus AMP candidate, 21 aa]	E. coli ATCC2592	0.867
YVCTRVDCSGRCKGRCNKSSRPNLCLRACNSCCFRCNCVPPPGTHGNHHLRPCYASITT [Bn14, recombinant B. napus AMP candidate, 59 aa]	E. coli ATCC2592	2.589
KTHEEKSKTYRRLCVDETGCNHACIFNEHFAGGHCRHLECFC [Bn17, recombinant B. napus AMP candidate, 42 aa]	E. coli ATCC2592	0.467
NWCGGKCEVRCKDVGMNDRCLKYCGICCKECKC [Bn20, recombinant B. napus AMP candidate, 33 aa]	E. coli ATCC2592	1.489
RCREASRKKVCYRAGGSCCAKCQCVPPGTSGNTASCPCYANLRTHGNKLKCP [Bn4, recombinant B. napus AMP candidate, 52 aa]	E. coli ATCC2592	2.122
